Test system: MCF7 cells (breast tumor cells) WT
Assay: Test B: cell proliferation/viability assay (CellTiter-Glo) on MCF7 WT
Format: cell-based
Conditions: Homo sapiens, MCF7, 168 h, 7 days of compound exposure
pIC50: −log10 of the molar value.
metric: pIC50

>>> quantitative_readout("NS(=O)(=O)c1ccc(C2=C(c3ccc(O[C@H]4CCN(CCCF)C4)cc3)c3ccc(O)cc3SC2)cc1")
7.34
>>> quantitative_readout("Nc1ccc(C2=C(c3ccc(O[C@H]4CCN(CCCF)C4)cc3)c3ccc(O)cc3SCC2)c(F)n1")
9.00
>>> quantitative_readout("Oc1ccc2c(c1)SCCC(c1ccc(F)nc1F)=C2c1ccc(O[C@H]2CCN(CCCF)C2)cc1")
10.00
>>> quantitative_readout("C[C@H]1Cc2cc(C3=C(c4ccc(O[C@H]5CCN(CCCF)C5)cc4)c4ccc(O)cc4SCC3)ccc2O1")
9.40

###

Target: His6-ERα298-554 D538G mutant (ERα ligand-binding domain) (Homo sapiens (Human), UniProt P03372, D538G)
Sequence (P03372 298-554 D538G): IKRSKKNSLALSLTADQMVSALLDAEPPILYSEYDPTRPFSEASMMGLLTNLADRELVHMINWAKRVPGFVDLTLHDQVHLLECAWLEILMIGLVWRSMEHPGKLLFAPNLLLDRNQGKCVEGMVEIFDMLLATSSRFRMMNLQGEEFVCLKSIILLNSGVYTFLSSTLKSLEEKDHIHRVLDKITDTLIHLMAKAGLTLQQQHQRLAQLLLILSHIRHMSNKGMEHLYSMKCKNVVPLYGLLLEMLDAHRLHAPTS
Test: Test A: biochemical antagonist activity, LanthaScreen TR-FRET ERα coactivator assay, D538G mutant
Conditions: asterisk (*): protocol using 10 nM estradiol; read-out: Antagonism D538G IC50
Experimental: Test A: Biochemical Antagonist Activity on Wild Type (WT) and Mutants Estrogen Receptors Test A involves measuring the in vitro antagonist activity of the compounds of the invention on estrogen receptors. […] Antagonistic potency of compounds was evaluated using LanthaScreen® TR-FRET ERα Coactivator Assay (ThermoFisher) with modifications. […] The assay works in a homogeneous mix-and-read format. […]
pIC50: −log10 of the molar value.
Reported pIC50 by item:
metric: pIC50

>>> quantitative_readout("CCOc1nccc(C2=C(c3ccc(O[C@H]4CCN(CCCF)C4)cc3)c3ccc(O)cc3SC2)c1Cl")
7.44
>>> quantitative_readout("CCOc1ccc(C2=C(c3ccc(O[C@H]4CCN(CCCF)C4)cc3)c3ccc(O)cc3SC2)c(F)n1")
7.42
>>> quantitative_readout("COc1ccc(C2=C(c3ccc(O[C@H]4CCN(CCCF)C4)cc3)c3ccc(O)cc3SCC2)c(F)c1")
7.51

###

Biological target: His6-ERα298-554 WT (ERα ligand-binding domain) (Homo sapiens (Human), UniProt P03372)
Sequence (P03372 298-554): as the sequence (P03372 298-554 D538G) above, with G241D counted along it
Experiment: Test A: biochemical antagonist activity, LanthaScreen TR-FRET ERα coactivator assay, WT
Conditions: asterisk (*): protocol using 10 nM estradiol; read-out: Antagonism WT IC50
Protocol: Test A: Biochemical Antagonist Activity on Wild Type (WT) and Mutants Estrogen Receptors Test A involves measuring the in vitro antagonist activity of the compounds of the invention on estrogen receptors. […] Antagonistic potency of compounds was evaluated using LanthaScreen® TR-FRET ERα Coactivator Assay (ThermoFisher) with modifications. […] The assay works in a homogeneous mix-and-read format. […]
pIC50: −log10 of the molar value.
metric: pIC50

>>> quantitative_readout("COc1ccc(C2=C(c3ccc(O[C@H]4CCN(CCCF)C4)cc3)c3ccc(O)cc3OCC2)c(C)c1")
8.70
>>> quantitative_readout("CCOc1cc(Cl)ccc1C1=C(c2ccc(O[C@H]3CCN(CCCF)C3)cc2)c2ccc(O)cc2SC1")
7.02
>>> quantitative_readout("Oc1ccc2c(c1)SCC(c1ccc(C(F)F)cc1F)=C2c1ccc(O[C@H]2CCN(CCCF)C2)cc1")
7.57
>>> quantitative_readout("Oc1ccc2c(c1)SCC(c1ccc(OC(F)F)cc1F)=C2c1ccc(O[C@H]2CCN(CCCF)C2)cc1")
7.80

Reference for the values: patent US11149031B2
